Read-out: Vascular cell adhesion molecule 1 (VCAM1), VCAM1 (gene 7412)
Assay: BSK_MyoF_VCAM1: BioMAP Diversity Plus: MyoF Assay for Vascular cell adhesion molecule 1 (VCAM1) Biomarker Activity (AID 2284231)
Conditions: primary human lung fibroblasts
Activity calls are given as the source filed them. Rule for the calls: active = hit-call score of the fitted dose curve at least 0.9, where 1 is the maximum; inactive = score below 0.9.
// allowed return values: active, inactive

For orientation, consider the following solved cases.
O=C(O)CCC(F)(F)C(F)(F)C(F)(F)C(F)(F)C(F)(F)C(F)(F)F = inactive
NC(=NCCCCCCN=C(N)/N=C(\N)Nc1ccc(Cl)cc1)/N=C(\N)Nc1ccc(Cl)cc1 = active
O=C(O)CCC(F)(F)C(F)(F)C(F)(F)C(F)(F)C(F)(F)F = inactive
O=C(NO)c1ccccc1 = inactive
CN(Cc1cnc2nc(N)nc(N)c2n1)c1ccc(C(=O)N[C@@H](CCC(=O)O)C(=O)O)cc1 = inactive

Look up the recorded call for `O=C(NCc1ncc(C(F)(F)F)cc1Cl)c1c(Cl)cccc1Cl` in this test. inactive

Look up the recorded call for `C=CC(=C)CC/C=C(\C)CCC=C(C)C` in this test. inactive

Look up the recorded call for CCCCC(CC)C(=O)OCCOCCOCCOCCOC(=O)C(CC)CCCC (stereo not drawn) in this test. inactive

Look up the recorded call for C=CC(C)(CCC=C(C)C)OC(C)=O (stereo not drawn) in this test. inactive

Look up the recorded call for `COC1=CC(=O)C[C@@H](C)[C@]12Oc1c(Cl)c(OC)cc(OC)c1C2=O` in this test. inactive

Look up the recorded call for `O=P(O)(O)CCC(F)(F)C(F)(F)C(F)(F)C(F)(F)C(F)(F)C(F)(F)C(F)(F)C(F)(F)F` in this test. inactive

Look up the recorded call for `CCCCCCCCCCCCCCCCCC[N+](C)(C)Cc1ccccc1` in this test. active

Look up the recorded call for `COCN(COC)c1nc(N(COC)COC)nc(N(COC)COC)n1` in this test. inactive
